TARGET: transgelin (Homo sapiens)
Sequence (Q01995 whole entry): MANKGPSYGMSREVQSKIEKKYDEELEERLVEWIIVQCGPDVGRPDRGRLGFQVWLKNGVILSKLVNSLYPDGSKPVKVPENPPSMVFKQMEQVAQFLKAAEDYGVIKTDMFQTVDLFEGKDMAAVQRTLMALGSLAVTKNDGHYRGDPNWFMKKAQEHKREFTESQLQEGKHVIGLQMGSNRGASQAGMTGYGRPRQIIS
PROPERTY MEASURED: Kd (µM)
Numbers only, in µM.

IN: Reported Kd for "O=C(/C=C/c1ccc(O)c(O)c1/C=C/c1ccc(O)c(O)c1)O[C@H](Cc1ccc(O)c(O)c1)C(=O)O" : what is it?
OUT: 7.11
